The reported numbers originate from ChEMBL document CHEMBL5724914.

- CONDITIONS_USED: human gut metagenome, 24 h, 2 µM; also: call rule not given here
MEASURED_METRIC: Bacterial Biotransformation

Completed entries (count: 5):
{"columns": ["COMPOUND", "MEASURED_METRIC", "REPORTED_RESULT"],
 "data": [
  ["CC12CC3CC(C)(C1)CC(N)(C3)C2 [MEMANTINE]", "Bacterial Biotransformation", "Compound NOT metabolized"],
  ["CCOc1cc(CC(=O)N[C@@H](CC(C)C)c2ccccc2N2CCCCC2)ccc1C(=O)O [REPAGLINIDE]", "Bacterial Biotransformation", "Compound metabolized"],
  ["CCOC(=O)[C@H](CCc1ccccc1)N[C@@H](C)C(=O)N1Cc2ccccc2C[C@H]1C(=O)O", "Bacterial Biotransformation", "Compound metabolized"],
  ["CCN(C(C)=O)c1cccc(-c2ccnc3c(C#N)cnn23)c1 [ZALEPLON]", "Bacterial Biotransformation", "Compound metabolized"],
  ["CN1CCC[C@@H]1CCO[C@](C)(c1ccccc1)c1ccc(Cl)cc1.O=C(O)/C=C/C(=O)O [CLEMASTINE FUMARATE]", "Bacterial Biotransformation", "Compound NOT metabolized"]
]}

What does the data say about its Bacterial Biotransformation? Entry: CN1[C@@H]2CC[C@H]1C[C@@H](OC(=O)c1c[nH]c3ccccc13)C2 [TROPISETRON]
Compound NOT metabolized

Next: CCOC(=O)C1=C(C)NC(C)=C(C(=O)OC)C1c1cccc([N+](=O)[O-])c1 (configuration not stated) [NITRENDIPINE]
Compound NOT metabolized
